assay: MM1S cell viability effects, profiling panel, calcein-AM fluorescence, 48 h, basal (AID 1165); details: higher = more signal;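 also: viability of MM1S multiple myeloma cells under basal unstimulated conditions; test concentration not given here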
Entries and their measured z-score follow.

Here's what some known entries look like.
molecule: CCOC(=O)C1=CC[C@H]2C(=O)N(CC)C(=O)[C@@H]12
result: -0.0999
//
molecule: CN(C)C(=O)[C@@]1(Cc2ccccc2)N=C(c2ccc(OCCCO)cc2)O[C@H]1c1ccccc1CN=[N+]=[N-]
result: -0.74
//
molecule: O=C1O[C@@H](c2ccccc2)[C@@H](c2ccccc2)N2[C@@H](c3ccccc3OCCO)[C@]3(C(=O)Nc4ccc(C#CCCO)cc43)[C@@H](C(=O)O)[C@H]12
result: -1.43

Exercise: Form field: reported z-score of COC(=O)C1(C)C=C2C(=C(c3ccccc3)C(=O)C2C)CN1 (centres undefined)
Solution: -0.671

====

test system: Sonic hedgehog protein (Shh); assay: small-molecule binders of Shh protein, primary screen, biochemical, small-molecule microarray, 635/667 nm fluorescence (AID 1151); conditions: small-molecule microarray binding, 635 nm fluorescence; higher = more signal;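 also: Shh protein binding to compounds spotted on small-molecule microarray slides; score combines spot fluorescence intensity with signal-to-noise across triplicate slides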
Please use yes (1) whenever composite z-score is not below 1, and no (0) whenever it is.

compound: COc1ccc([Si](C)(C)[C@@H]2[C@@H](CCO)O[C@]3(C(=O)N(Cc4ccc(NC(C)=O)cc4)c4ccccc43)[C@H]2C)cc1
classification: yes (1)

// switching to the query compound
Exercise: Dear colleague, could you confirm whether CC(CCN1CCc2nc(-c3ccccc3)c(-c3ccccc3)cc2C1)=NOC[C@@H](C)[C@H](OCc1ccccc1)C(C)C has composite z-score at or above 1?
Solution: no (0)

====

experiment: basal HepG2 mitochondrial membrane potential changes, profiling panel, cell-based, JC-1 fluorescence, 24 h, 100 nL compound (AID 1167); settings: higher = more signal; also: test concentration not given here
Entries and their measured z-score follow.
Write no unit; give the number alone.

smilesStr: O=C1O[C@@H](c2ccccc2)[C@@H](c2ccccc2)N2[C@@H](c3ccc(OCCO)cc3)[C@]3(C(=O)Nc4ccccc43)[C@@H](C(=O)N3CCN(c4ncccn4)CC3)[C@H]12
measureName: z-score
quantitativeResult: -0.679

smilesStr: CO[C@H]([C@@H](C)[C@H](OC)c1ccccc1)[C@H](C)[C@@H](OC)[C@H](C)C(C)=O
measureName: z-score
quantitativeResult: 0.0892

smilesStr: CCOC(=O)NN=C1C[C@@H](O)[C@@H](O)[C@@H]2[C@@H]3C(=O)N(C(C)(C)C)C(=O)[C@@H]3CC[C@@H]12
measureName: z-score
quantitativeResult: -0.79

Please examine the following record next.
Exercise: Form field: reported z-score of CCOC(=O)CCN1C(=O)[C@H]2[C@H]3[C@H](O)[C@H](O)CC(=O)[C@H]3CC[C@H]2C1=O
Solution: -0.103

====

Entries and their measured z-score follow.
experiment: PSAC antagonists in infected red cells, primary screen, cell-based, P. falciparum Indochina, OD700, 1 h (AID 1154); conditions: P. falciparum Indochina infected RBC osmotic lysis, higher = more signal, called active from +8 up or from −8 down
Write no unit; give the number alone.

smilesStr: O=C1O[C@@H](c2ccccc2)[C@@H](c2ccccc2)N2[C@@H](c3ccc(O)cc3)[C@]3(C(=O)Nc4ccccc43)[C@@H](C(=O)O)[C@H]12
z-score: 1.41

Exercise: Form field: reported z-score of O=C(CS)NCCCCCNC(=O)[C@H]1C[C@H]2C(=O)N3CCC[C@H]3C(=O)N2[C@H]1c1cccc(OCCO)c1
Solution: 3.12

Exercise: Now give it for Cc1ccc(S[C@]2(C(=O)O)CC(=O)N(Cc3ccccc3)[C@@H]2c2ccc(CO)cc2I)cc1 too.
Solution: 13.9

Exercise: Now give it for CC(C)CON=C1C[C@@H](O)[C@@H](O)[C@@H]2[C@@H]3C(=O)N([C@@H](C)c4ccccc4)C(=O)[C@@H]3CC[C@H]12 too.
Solution: 3.27

Exercise: Now give it for CC(C)(C)N1C(=O)[C@H]2[C@H]3[C@H](O)[C@H](O)CC(=NOCc4ccccc4)[C@@H]3CC[C@H]2C1=O too.
Solution: 0.464

Exercise: Now give it for COC(=O)[C@@H]1CC[C@H](C)[C@@H](c2ccc(C)cc2)N1C(=O)c1ccc(C=NOC[C@@H](O)COCc2ccco2)cc1 too.
Solution: 5.79

Exercise: Now give it for CC(CCC(=O)OC[C@H]1O[C@H](C#Cc2ccccc2)C=C[C@@H]1Oc1ccc(C)cc1)=NOC[C@@H](O)[C@H]1O[C@@H]2OC(C)(C)O[C@@H]2[C@H]1O too.
Solution: 14.2

====

molecular target: Calmodulin-1 (Homo sapiens); experiment: calcium-bound CALM1 binders on microarrays, profiling panel, artefact control for SMM control-protein annotation, biochemical, small-molecule microarray, Cy5-labelled CALM1, plus calcium (AID 1112); settings: Cy5-CALM1 binding fluorescence, higher = more signal;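 also: score merges spot fluorescence with signal to noise from triplicate slides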
measureName: composite z-score
Write no unit; give the number alone.

Here's what some known entries look like.
smilesStr: CCc1cccc(NC(=O)O[C@H]2[C@H](OC(=O)Nc3ccc4c(c3)OCO4)[C@@H](OC(=O)Nc3ccc4c(c3)OCO4)[C@@H](OC)O[C@@H]2CO)c1
composite z-score: -1.12
//
smilesStr: Cc1cc2c(c(=O)o1)[C@H](O)[C@H]1O[C@H]1C2=O
composite z-score: -1.38
//
smilesStr: COC(=O)C1=C(C)N(Cc2ccccc2)[C@]23O[C@](C(=O)OC)(C(=O)N2[C@@H]1c1ccccc1)[C@H]1CCOC(=O)[C@H]13
composite z-score: -0.832
//
smilesStr: CCCC=C(CCC)[C@@H](NC(=O)c1ccc(-c2ccccc2)cc1)c1ccc(C(=O)OC)cc1
composite z-score: 1.31
//
smilesStr: C[C@H](c1ccccc1)N1C(=O)[C@H]2[C@@H]3C(=CC[C@H]2C1=O)C(=O)[C@H]1O[C@H]1[C@H]3O
composite z-score: -0.932

Exercise: Form field: reported composite z-score of CO[C@@H]1COC(=O)CC=C[C@@H](C)COC(=O)[C@H](COCc2ccccc2)NC(=O)CC=C[C@H]1C
Solution: -1.28

Exercise: Now give it for CO[C@H]1COC(=O)CC=C[C@H](C)[C@@H](NS(=O)(=O)c2ccc(C)cc2)COC(=O)CC=C[C@@H]1C too.
Solution: -0.521

Exercise: Now give it for CC(C)CN1CCc2nc(-c3ccccc3)c3c(c2CC1)CO[C@@H](C)C3 too.
Solution: -0.177

====

assay: small-molecule binders of probe aNOTCH2, primary screen, biochemical, small-molecule microarray, 635/667 nm fluorescence (AID 1121); conditions: higher = more signal;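 also: score merges feature fluorescence read at 667 nm with its signal to noise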
Entries and their measured composite z-score follow.
Write no unit; give the number alone.

Here's what some known entries look like.
molecule: O=C1NC(=O)C2C1C=CC(C(O)Cc1ccccc1)N2Nc1ccccn1 (centres undefined)
composite z-score: -0.0079

molecule: O=C1CCCC=C1C(O)CCOCc1ccccc1 (centres undefined)
composite z-score: -0.108

molecule: CCCNC(=O)OC[C@H]1O[C@H](CCON=CC[C@@H]2C=C[C@H](OC(C)=O)[C@@H](COC(C)=O)O2)C=C[C@@H]1Oc1ccc(OC)cc1
composite z-score: -0.14

molecule: COC(=O)C1=C(C)N(Cc2ccccc2)[C@]23O[C@](C(=O)OC)(C(=O)N2[C@@H]1c1ccccc1)[C@H]1CCOC(=O)[C@H]13
composite z-score: -0.131

molecule: N#Cc1ccc(NN2C(C(O)c3cccc4ccccc34)C=CC3C(=O)N(c4ccccc4)C(=O)C32)cc1 (centres undefined)
composite z-score: 0.0687

Exercise: Form field: reported composite z-score of CC(C)N1CC=CC23O[C@@H]4C=CCCOC(=O)C4[C@H]2C(=O)N(CCCCCCO)[C@@H]3C1=O (some centres undefined)
Solution: 0.109

Exercise: Now give it for [N-]=[N+]=NCc1ccccc1[C@@H]1OC(c2ccc(OCCCO)cc2)=N[C@]1(Cc1ccccc1)C(=O)N1CCOCC1 too.
Solution: 0.34

====

biological target: Epidermal growth factor receptor (Homo sapiens) (UniProt P00533); experiment: EGFR binders on small-molecule microarrays, primary screen, biochemical, small-molecule microarray, 635 nm fluorescence (AID 1104); conditions: EGFR binding, higher = more signal;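 also: score merges 667 nm emission intensity with spot signal to noise over triplicate slides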
Sequence (P00533 whole entry, looked up): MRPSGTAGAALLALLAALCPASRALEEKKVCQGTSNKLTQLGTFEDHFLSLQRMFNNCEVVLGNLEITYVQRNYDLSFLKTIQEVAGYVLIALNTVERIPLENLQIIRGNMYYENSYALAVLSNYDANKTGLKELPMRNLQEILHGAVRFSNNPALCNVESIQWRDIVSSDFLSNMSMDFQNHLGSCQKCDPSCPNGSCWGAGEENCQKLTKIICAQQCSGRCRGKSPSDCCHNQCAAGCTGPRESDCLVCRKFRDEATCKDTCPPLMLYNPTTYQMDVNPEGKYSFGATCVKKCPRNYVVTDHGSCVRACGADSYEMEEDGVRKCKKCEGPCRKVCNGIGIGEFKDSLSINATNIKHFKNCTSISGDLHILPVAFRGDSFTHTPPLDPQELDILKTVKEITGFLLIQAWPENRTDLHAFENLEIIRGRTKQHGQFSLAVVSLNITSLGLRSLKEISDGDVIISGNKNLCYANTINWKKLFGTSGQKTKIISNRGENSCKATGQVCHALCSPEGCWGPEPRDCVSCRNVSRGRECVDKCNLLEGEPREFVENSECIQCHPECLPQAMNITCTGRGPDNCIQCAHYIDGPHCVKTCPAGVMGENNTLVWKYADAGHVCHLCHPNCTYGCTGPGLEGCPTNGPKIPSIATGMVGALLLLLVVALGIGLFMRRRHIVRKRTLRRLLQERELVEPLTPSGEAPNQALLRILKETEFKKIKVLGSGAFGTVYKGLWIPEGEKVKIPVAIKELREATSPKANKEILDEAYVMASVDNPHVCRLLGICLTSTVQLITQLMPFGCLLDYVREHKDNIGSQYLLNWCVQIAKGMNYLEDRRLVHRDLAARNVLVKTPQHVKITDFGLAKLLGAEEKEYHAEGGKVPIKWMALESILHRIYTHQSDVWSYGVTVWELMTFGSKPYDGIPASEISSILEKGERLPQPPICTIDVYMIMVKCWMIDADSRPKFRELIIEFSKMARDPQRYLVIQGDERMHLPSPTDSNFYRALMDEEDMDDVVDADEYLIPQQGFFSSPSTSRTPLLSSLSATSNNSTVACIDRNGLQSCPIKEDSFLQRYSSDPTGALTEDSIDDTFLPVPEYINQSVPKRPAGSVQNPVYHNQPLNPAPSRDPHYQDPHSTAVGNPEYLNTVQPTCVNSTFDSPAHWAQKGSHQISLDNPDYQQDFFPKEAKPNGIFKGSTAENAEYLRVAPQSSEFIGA
Entries and their measured composite z-score follow.

Here's what some known entries look like.
compound: CCOC(=O)CCN1C(=O)[C@H]2[C@H]3[C@H](O)[C@H](O)CC(=NOC[C@@H](O)COCc4ccco4)[C@H]3CC[C@H]2C1=O
composite z-score: 0.328
//
compound: CO[C@H]1O[C@H](CO)[C@@H](OC(=O)Nc2ccc3c(c2)OCO3)[C@H](OC(=O)Nc2ccccc2-c2ccccc2)[C@@H]1OC(=O)Nc1ccccc1-c1ccccc1
composite z-score: 0.23
//
compound: O=C1CCCC2OC12C(O)CCc1ccccc1 (configuration not stated)
composite z-score: 0.548
//
compound: CC(C)[C@H](NC(=O)OC(C)(C)C)[C@@H](O)CC(=O)OC(C)(C)C
composite z-score: -0.664
//
compound: CO[C@@H]1COC(=O)CC=C[C@@H](C)[C@H](OC)COC(=O)[C@H](COCc2ccccc2)NC(=O)CC=C[C@H]1C
composite z-score: 0.461

Exercise: Form field: reported composite z-score of CCN1C(=O)[C@H]2[C@H]3[C@H](O)[C@H](O)CC(=NO[C@@H]4O[C@H](CO)[C@@H](O)[C@H](O)[C@H]4O)[C@@H]3CC[C@H]2C1=O
Solution: -0.831

Exercise: Now give it for O=C1C[C@]2(c3ccc([N+](=O)[O-])cc3)C(=O)N(CCN3CCOCC3)c3cc(CO)ccc3[C@H]2N1CC12CC3CC(CC(C3)C1)C2 too.
Solution: -1
